Provenance of the data: ChEMBL document CHEMBL1287760

Assay: Therapeutic index, ratio of EC50 for human cells to EC50 for Trypanosoma brucei
Conditions: human cells versus Trypanosoma brucei, read-out: Ratio EC50
Item-by-item account of selectivity ratio

As a guide, the following entries are already answered.
molecule_smiles: COCCCn1cnc2c(NCc3ccc(Cl)c(Cl)c3)nc(C#N)nc21
selectivity ratio: > 10
--
molecule_smiles: N#Cc1nc(NCc2ccc(Cl)c(Cl)c2)c2ncn(CCCO)c2n1
selectivity ratio: > 20
--
molecule_smiles: N#Cc1nc(NCc2ccc(Cl)c(Cl)c2)c2ncn(CCCCCO)c2n1
selectivity ratio: > 20

The recorded selectivity ratio for entry N#Cc1nc(NCc2ccc(Cl)c(Cl)c2)c2ncn(CCCC(F)(F)F)c2n1 equals > 20

In plain terms, Cc1cccc(C)c1-c1cccc(CNc2nc(C#N)nc3c2ncn3CCCO)c1 has a documented selectivity ratio of > 20

For this compound ( CCCCn1cnc2c(NCc3ccc(Cl)c(Cl)c3)nc(C#N)nc21 ), measured selectivity ratio is > 20

----------
Experiment: Toxicity in human erythrocyte assessed as hemolysis at 10 uM after 5 hrs
Format: cell-based
Settings: erythrocytes, read-out: Activity
quantity_kind: hemolysis at 5 h, 10 µM (%)
Dear colleague, please return just the value in %, with no unit written.

molecule_smiles: N#Cc1nc(NCc2ccc(Cl)c(Cl)c2)c2ncn(CCCO)c2n1
hemolysis at 5 h, 10 µM [%]: 0.7
--
molecule_smiles: Cc1cccc(C)c1-c1cccc(CNc2nc(C#N)nc3c2ncn3CCCO)c1
hemolysis at 5 h, 10 µM [%]: 1.1
--
molecule_smiles: N#Cc1nc(NCc2ccc(Cl)c(Cl)c2)c2ncn(CCCC(F)(F)F)c2n1
hemolysis at 5 h, 10 µM [%]: 0.4
--
molecule_smiles: N#Cc1nc(NCc2ccc(Cl)c(Cl)c2)c2ncn(CCCCCO)c2n1
hemolysis at 5 h, 10 µM [%]: 0.7
--
molecule_smiles: CCCCn1cnc2c(NCc3ccc(Cl)c(Cl)c3)nc(C#N)nc21
hemolysis at 5 h, 10 µM [%]: 0.9

The record that follows has no hemolysis at 5 h, 10 µM shown yet.
Form field hemolysis at 5 h, 10 µM, entry COCCCn1cnc2c(NCc3ccc(Cl)c(Cl)c3)nc(C#N)nc21 : 0.7

----------
Test: Aqueous solubility of compound in deionized water
Assay type: physicochemical
quantity_kind: solubility (µM)
Your answer is read as µM, so omit the unit and give the number.

Here's what some known entries look like.
molecule_smiles: N#Cc1nc(NCc2ccc(Cl)c(Cl)c2)c2ncn(CCCC(F)(F)F)c2n1
solubility, µM: 0.3
//
molecule_smiles: CCCCn1cnc2c(NCc3ccc(Cl)c(Cl)c3)nc(C#N)nc21
solubility, µM: 0.7

Note to self: solubility recorded for N#Cc1nc(NCc2ccc(Cl)c(Cl)c2)c2ncn(CCCO)c2n1 was 10.4

Value of measured solubility for the entry COCCCn1cnc2c(NCc3ccc(Cl)c(Cl)c3)nc(C#N)nc21 : 4.2

Quick note, solubility for N#Cc1nc(NCc2ccc(Cl)c(Cl)c2)c2ncn(CCCCCO)c2n1 landed at 16.1

Lab note: measured solubility of Cc1cccc(C)c1-c1cccc(CNc2nc(C#N)nc3c2ncn3CCCO)c1 was 1

----------
Assay: Cmax in mouse plasma at 200 mg/kg, ip
Type: ADME, organism-based
Design: dose 200 mg/kg, route intraperitoneal
quantity_kind: Tmax (h)
// note: answer is a bare numeric in h

Recorded result, N#Cc1nc(NCc2ccc(Cl)c(Cl)c2)c2ncn(CCCC(F)(F)F)c2n1 , Tmax: 4

----------
Assay: Half life in CD1 mouse plasma by UPLC-MS analysis
Type: ADME, cell-free
Lab note: compare half-life with 40 h, writing criterion met if less and criterion not met if equal or more.

Some solved entries appear below for comparison.
molecule_smiles: N#Cc1nc(NCc2ccc(Cl)c(Cl)c2)c2ncn(CCCO)c2n1
label_value: criterion met
--
molecule_smiles: N#Cc1nc(NCc2ccc(Cl)c(Cl)c2)c2ncn(CCCCCO)c2n1
label_value: criterion met
--
molecule_smiles: Cc1cccc(C)c1-c1cccc(CNc2nc(C#N)nc3c2ncn3CCCO)c1
label_value: criterion met
--
molecule_smiles: CCCCn1cnc2c(NCc3ccc(Cl)c(Cl)c3)nc(C#N)nc21
label_value: criterion not met

Report whether reported half-life is lower than 40 h (strictly) for N#Cc1nc(NCc2ccc(Cl)c(Cl)c2)c2ncn(CCCC(F)(F)F)c2n1
criterion not met

----------
Test system: Trypanosoma brucei
Test: Antitrypanosomal activity against Trypanosoma brucei after 48 hrs
Type: functional, organism-based
quantity_kind: EC50 (nM)
The response must be a number in nM with no trailing unit.

molecule_smiles: N#Cc1nc(NCc2ccc(Cl)c(Cl)c2)c2ncn(CCCCCO)c2n1
unit_abbreviation: nM
test_result: 380
//
molecule_smiles: N#Cc1nc(NCc2ccc(Cl)c(Cl)c2)c2ncn(CCCO)c2n1
unit_abbreviation: nM
test_result: 1400
//
molecule_smiles: COCCCn1cnc2c(NCc3ccc(Cl)c(Cl)c3)nc(C#N)nc21
unit_abbreviation: nM
test_result: 2400
//
molecule_smiles: CCCCn1cnc2c(NCc3ccc(Cl)c(Cl)c3)nc(C#N)nc21
unit_abbreviation: nM
test_result: 500
//
molecule_smiles: Cc1cccc(C)c1-c1cccc(CNc2nc(C#N)nc3c2ncn3CCCO)c1
unit_abbreviation: nM
test_result: 270

Please turn your attention to the following entry.
Reported EC50 for N#Cc1nc(NCc2ccc(Cl)c(Cl)c2)c2ncn(CCCC(F)(F)F)c2n1 was 530

----------
Test: Half life in CD1 mouse liver microsomes by UPLC-MS analysis
Assay type: ADME, Microsome
Conditions: CD1, mouse, liver microsomes
quantity_kind: half-life
Include the unit after the number when you answer.

Consider the worked cases shown below.
molecule_smiles: N#Cc1nc(NCc2ccc(Cl)c(Cl)c2)c2ncn(CCCCCO)c2n1
half-life: 64.8 min
//
molecule_smiles: CCCCn1cnc2c(NCc3ccc(Cl)c(Cl)c3)nc(C#N)nc21
half-life: 44.4 min
//
molecule_smiles: COCCCn1cnc2c(NCc3ccc(Cl)c(Cl)c3)nc(C#N)nc21
half-life: 31.8 min
//
molecule_smiles: N#Cc1nc(NCc2ccc(Cl)c(Cl)c2)c2ncn(CCCO)c2n1
half-life: 36 min

Let's switch to this compound now.
Item: Cc1cccc(C)c1-c1cccc(CNc2nc(C#N)nc3c2ncn3CCCO)c1 | half-life: 25.8 min

----------
Assay: Ratio of drug level in brain to plasma in mouse at 200 mg/kg, po after 24 hrs
quantity_kind: Kp at 24 h
Quick one: just the number, no unit, thanks!

Just so you know, measured Kp at 24 h for N#Cc1nc(NCc2ccc(Cl)c(Cl)c2)c2ncn(CCCC(F)(F)F)c2n1 came out at 2

----------
Test: Cmax in mouse plasma at 200 mg/kg, po
Type: ADME, organism-based
Parameters: dose 200 mg/kg, route oral
quantity_kind: Tmax

Entry under test: N#Cc1nc(NCc2ccc(Cl)c(Cl)c2)c2ncn(CCCC(F)(F)F)c2n1 . Its Tmax was 24 h

----------
Test: Inhibition of Trypanosoma brucei cathepsin B expressed in Pichia pastoris
quantity_kind: IC50
Note: a bare number is incomplete; add the unit.

Value of IC50 reported for the molecule N#Cc1nc(NCc2ccc(Cl)c(Cl)c2)c2ncn(CCC(=O)O)c2n1 is 2600 nM

----------
Test: Cmax in mouse brain at 200 mg/kg, po
quantity_kind: Tmax (h)
Quick note: give the figure in h, leave out the unit.

Summary for this compound, N#Cc1nc(NCc2ccc(Cl)c(Cl)c2)c2ncn(CCCC(F)(F)F)c2n1 : Tmax is 4
